System: M. tuberculosis clinical isolates, resistant
Assay: microbe, parasite or virus in culture
Type: cell-based, Mycobacterium tuberculosis
Conditions: Mycobacterium tuberculosis, read-out: MIC against Clinical isolates Resistant
measurement_name: MIC

1) Cc1ccc(C(=O)CCC(=O)NC[C@H]2CN(c3ccc(-c4nc[nH]n4)c(F)c3)C(=O)O2)c(C)c1 = 1 to 2 µg/mL
2) CCCc1ccc(C(=O)CCC(=O)NC[C@H]2CN(c3ccc(-c4nc[nH]n4)c(F)c3)C(=O)O2)c(C)c1 = 2 to 8 µg/mL
3) O=C(CCC(=O)c1cccs1)NC[C@H]1CN(c2ccc(-c3nc[nH]n3)c(F)c2)C(=O)O1 = 2 to 4 µg/mL

* * *

Listing of recorded MIC by entry.
System: M. tuberculosis clinical isolates, resistant
Assay: microbe, parasite or virus in culture
Format: cell-based, Mycobacterium tuberculosis
Conditions: Mycobacterium tuberculosis, read-out: MIC against Clinical isolates Resistant
measurement_name: MIC

1) CC(=O)Nc1ccc(C(=O)CCC(=O)NC[C@H]2CN(c3ccc(-c4nc[nH]n4)c(F)c3)C(=O)O2)cc1 [Compound 50] = 2 to 4 µg/mL
2) O=C(CCC(=O)c1ccc2ccccc2c1)NC[C@H]1CN(c2ccc(-c3nc[nH]n3)c(F)c2)C(=O)O1 [Compound 48] = 2 to 8 µg/mL
3) CC(=O)NC[C@H]1CN(c2ccc(N3CCOCC3)c(F)c2)C(=O)O1 [Linezolid, reference compound] = 1 to 2 µg/mL
4) O=C(CCC(=O)c1ccc(Cl)cc1)NC[C@H]1CN(c2ccc(-c3nc[nH]n3)c(F)c2)C(=O)O1 [Compound 49] = 4 to 16 µg/mL
